# System: HEK-293T
# test.details: Multiplex assay against HEK293T
# Type: toxicity, cell-based
# assay.context: human, 48 h, 10 µM, compound concentration 10 uM, replicate 1
Reported Population Healthy Nuclei (%) values follow for various compounds

compound	unit.abbrev	Population Healthy Nuclei (%)
O=C(c1cc2c(cc1F)OC(c1ccc(F)cc1)(c1ccc(Cl)cc1Cl)O2)N1CCOCC1 (centres undefined)	%	26
O=c1cc(N2CCOCC2)oc2c(-c3cccc4c3sc3ccccc34)cccc12	%	20
COC(=O)C1=C(C)NC(C)=C(C(=O)OCCCN2CCC(c3ccccc3)(c3ccccc3)CC2)[C@H]1c1cccc([N+](=O)[O-])c1	%	3
CC(C)OC(=O)N1CCC(Oc2ncnc3c2cnn3-c2ccc(S(C)(=O)=O)cc2F)CC1	%	41

###

# System: HEK-293T
# test.details: Multiplex assay against HEK293T
# Type: toxicity, cell-based
# assay.context: human, 48 h, 1 µM, compound concentration 1 uM, replicate 1
metric.name: Population Healthy Nuclei (%)

compound	metric.name	unit.abbrev	test.result
O=c1cc(N2CCOCC2)oc2c(-c3cccc4c3sc3ccccc34)cccc12	Population Healthy Nuclei (%)	%	42
COc1ccccc1CN[C@H]1C2CCN(CC2)[C@H]1C(c1ccccc1)c1ccccc1	Population Healthy Nuclei (%)	%	48
CCCSc1nc(N[C@@H]2C[C@H]2c2ccc(F)c(F)c2)c2nnn([C@@H]3C[C@H](OCCO)[C@@H](O)[C@H]3O)c2n1	Population Healthy Nuclei (%)	%	40
Cc1ccc2c(c1)c1c(n2CCc2ccc(C)nc2)CCN(C)C1 [LATREPIRDINE]	Population Healthy Nuclei (%)	%	61
CC1=C(C(=O)Nc2cc3cn[nH]c3cc2F)C(c2ccc(C(F)(F)F)cc2)CC(=O)N1 (stereo unspecified)	Population Healthy Nuclei (%)	%	47
Cc1ccc(C)c(Oc2ccncc2C(=O)N2CCN(C3CC3)c3ccccc32)c1	Population Healthy Nuclei (%)	%	63

###

Reported Population Fragmented Nuclei (%) values follow for various compounds
# System: U2OS
# test.details: Multiplex assay against U2OS
# Assay type: toxicity, cell-based
# assay.context: human, 12 h, 1 µM, compound concentration 1 uM, replicate 2
metric.name: Population Fragmented Nuclei (%)

compound	target	metric.name	test.result
CC(C)Oc1ccccc1C(=O)Nc1ccccc1C(=O)Nc1cccc(S(=O)(=O)C(F)(F)F)c1	U2OS	Population Fragmented Nuclei (%)	20%
COc1cc2ncn(-c3cc(OCc4ccccc4C(F)(F)F)c(C(N)=O)s3)c2cc1OC [GW843682X]	U2OS	Population Fragmented Nuclei (%)	9%
Cc1nc(N2CC[C@H](O)C2)ncc1-c1cc(C(F)(F)F)cc2[nH]ncc12	U2OS	Population Fragmented Nuclei (%)	4%
CC1=C(C(=O)Nc2cc3cn[nH]c3cc2F)C(c2ccc(C(F)(F)F)cc2)CC(=O)N1 (centres undefined)	U2OS	Population Fragmented Nuclei (%)	2%

###

# System: HEK-293T
# test.details: Multiplex assay against HEK293T;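 as to Population Tubulin-Different-Phenotype (%): share of the cells with healthy nuclei that show this phenotype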
# Assay type: toxicity, cell-based
# assay.context: human, 48 h, 1 µM, compound concentration 1 uM, replicate 1
metric.name: Population Tubulin-Different-Phenotype (%)

compound	unit.abbrev	test.result
CN1CCN(Cc2ccc(Nc3ncc(Cl)c(Nc4ccccc4S(=O)(=O)N(C)C)n3)cc2)CC1 [DUBERMATINIB]	%	24
CC(C)Oc1ccccc1C(=O)Nc1ccccc1C(=O)Nc1cccc(S(=O)(=O)C(F)(F)F)c1	%	50
CC(C)c1noc(N2CCC(COc3ccc(-c4ccc(S(C)(=O)=O)cc4)nc3)CC2)n1 [GSK-1292263]	%	35
COc1ccccc1CN[C@H]1C2CCN(CC2)[C@H]1C(c1ccccc1)c1ccccc1 [CP-96345]	%	58
CCCSc1nc(N[C@@H]2C[C@H]2c2ccc(F)c(F)c2)c2nnn([C@@H]3C[C@H](OCCO)[C@@H](O)[C@H]3O)c2n1 [TICAGRELOR]	%	50
COc1ccc(-c2ccc3ncc4c(c3c2)n(-c2ccc(N3CCNCC3)c(C(F)(F)F)c2)c(=O)n4C)cn1.O=C(O)/C=C\C(=O)O [BGT-226]	%	100
Cc1c[nH]c2nccc(Oc3c(F)cc(Nc4cc(Cl)nc(N)n4)cc3F)c12 [BAY-549]	%	24
C[C@]12CC[C@@H]3c4ccc(O)cc4CC[C@H]3[C@@H]1CC[C@@H]2O [ESTRADIOL]	%	25
CC(C)(C)NC[C@H](O)COc1nsnc1N1CCOCC1 [TIMOLOL]	%	33
Cc1cccc(CN2CCN(C(c3ccccc3)c3ccc(Cl)cc3)CC2)c1.Cl.Cl (stereo not given)	%	34
CCc1ccc(OCc2ccccc2C(=O)Nc2ccc3nc(C)cc(N)c3c2)cc1.Cl	%	66
CNC(=O)Nc1ccc(-c2nc(N3CC4CCC(C3)O4)c3cnn(C4CCC5(CC4)OCCO5)c3n2)cc1	%	33
CC(C)NC(=O)N1CC[C@H](NC2=Nc3cc(F)ccc3N(CC(F)F)c3ccc(Cl)cc32)C1	%	28
Cc1ccc2c(c1)c1c(n2CCc2ccc(C)nc2)CCN(C)C1 [LATREPIRDINE]	%	67
COC(=O)C1=C(C)NC(C)=C(C(=O)OCCCN2CCC(c3ccccc3)(c3ccccc3)CC2)[C@H]1c1cccc([N+](=O)[O-])c1 [NIGULDIPINE]	%	96
O=C(c1cc2c(cc1F)OC(c1ccc(F)cc1)(c1ccc(Cl)cc1Cl)O2)N1CCOCC1 (stereo not given)	%	40
CC1=C(C(=O)Nc2cc3cn[nH]c3cc2F)C(c2ccc(C(F)(F)F)cc2)CC(=O)N1 (stereo not given)	%	22
Cl.O=C(O)c1cc(-c2ccc(C3CCNCC3)cc2)c2ccc(-c3ccc(C(F)(F)F)cc3)cc2c1	%	19
CCc1nn(CCCN2CCN(c3cccc(Cl)c3)CC2)c(=O)n1CCOc1ccccc1.Cl [NEFAZODONE HYDROCHLORIDE]	%	44
CC(C)OC(=O)N1CCC(Oc2ncnc3c2cnn3-c2ccc(S(C)(=O)=O)cc2F)CC1	%	25

###

# Test system: U2OS
# test.details: Multiplex assay against U2OS
# Type: toxicity, cell-based
# assay.context: human, 24 h, 1 µM, compound concentration 1 uM, replicate 2

compound	unit.abbrev	Population Healthy Nuclei (%)
CCc1ccc(OCc2ccccc2C(=O)Nc2ccc3nc(C)cc(N)c3c2)cc1.Cl	%	28
Cl.O=C(O)c1cc(-c2ccc(C3CCNCC3)cc2)c2ccc(-c3ccc(C(F)(F)F)cc3)cc2c1	%	79
CC(C)Oc1ccccc1C(=O)Nc1ccccc1C(=O)Nc1cccc(S(=O)(=O)C(F)(F)F)c1	%	66
O=c1[nH]c2ccccc2n1C1CCN(Cc2ccc(-c3[nH]c4cc5ncnc5cc4nc3-c3ccccc3)cc2)CC1	%	81
O=c1cc(N2CCOCC2)oc2c(-c3cccc4c3sc3ccccc34)cccc12	%	82
COC(=O)C1=C(C)NC(C)=C(C(=O)OCCCN2CCC(c3ccccc3)(c3ccccc3)CC2)[C@H]1c1cccc([N+](=O)[O-])c1	%	65
CCOC(=O)Nc1cc(-c2ccc(C)c(NS(C)(=O)=O)c2)nn2c(C)nnc12	%	84
COc1cc2ncn(-c3cc(OCc4ccccc4C(F)(F)F)c(C(N)=O)s3)c2cc1OC [GW843682X]	%	74
C=CC(=O)Nc1cccc(Oc2nc(Nc3ccc(N4CCN(C)CC4)cc3OC)ncc2Cl)c1	%	17
C[C@]12CC[C@@H]3c4ccc(O)cc4CC[C@H]3[C@@H]1CC[C@@H]2O	%	89
COc1cc(Nc2nccc(-c3cnn4nc(OC)ccc34)n2)cc(C(F)(F)F)c1	%	77
C=CC(=O)Nc1ccc2[nH]c(=O)n(C3CCN(Cc4ccc(-c5nc6cc[nH]c(=O)c6cc5-c5ccccc5)cc4)CC3)c2c1	%	84
Cc1ccccc1C(c1ccccc1C)N1C2CCC1CC(O)(c1ccccc1)C2 (stereo not given)	%	77
CC(C)(C)NC[C@H](O)COc1nsnc1N1CCOCC1	%	81
CC(C)CC(=O)Nc1[nH]nc2c1CN(C(=O)C1CCN(C)CC1)C2(C)C	%	85

###

Reported Growth Rate values follow for various molecules
# System: HEK-293T
# test.details: Incucyte cell viability with HEK293T; also: filed as whole numbers so only -1 and 0 and 1 occur
# Format: toxicity, cell-based
# assay.context: human, 24 h, 10 µM, compound concentration 10 uM, replicate number 2, timepoint 24 hours
metric.name: Growth Rate

O=C1CCc2cc(Nc3cc(OC4CCOCC4)c([N+](=O)[O-])cc3Cl)ccc2N1 1
O=C(NCc1ncc(C(F)(F)F)cc1Cl)c1ccc2c(c1)C1(CCS(=O)(=O)CC1)[C@@H](C1CC1)N2S(=O)(=O)c1ccc(F)cc1 1
CC(C)Oc1ccc(-c2c[nH]cc2CN(C)CCN)cc1 1
O=C(N[C@@H](C1CC1)C(F)(F)F)c1cc(-c2cnn3cc(-c4ccc(F)cc4)cnc23)cs1 1
COc1cc(C(=O)NS(=O)(=O)c2ccccc2C)ccc1Cc1cn(C)c2ccc(NC(=O)OC3CCCC3)cc12 0

###

# System: Fibroblast
# test.details: Multiplex assay against human fibroblast
# Type: toxicity, cell-based
# assay.context: 48 h, 1 µM, compound concentration 1 uM, replicate 1

molecule	Population Apoptotic (%)
CC(C)NC(=O)N1CC[C@H](NC2=Nc3cc(F)ccc3N(CC(F)F)c3ccc(Cl)cc32)C1	52
COc1cc2ncn(-c3cc(OCc4ccccc4C(F)(F)F)c(C(N)=O)s3)c2cc1OC [GW843682X]	52
COc1cc(Nc2nccc(-c3cnn4nc(OC)ccc34)n2)cc(C(F)(F)F)c1	64
Cc1cccc(CN2CCN(C(c3ccccc3)c3ccc(Cl)cc3)CC2)c1.Cl.Cl (centres undefined)	66
CCCSc1nc(N[C@@H]2C[C@H]2c2ccc(F)c(F)c2)c2nnn([C@@H]3C[C@H](OCCO)[C@@H](O)[C@H]3O)c2n1 [TICAGRELOR]	44
CN1CCN(Cc2ccc(Nc3ncc(Cl)c(Nc4ccccc4S(=O)(=O)N(C)C)n3)cc2)CC1 [DUBERMATINIB]	62
CNC(=O)Nc1ccc(-c2nc(N3CC4CCC(C3)O4)c3cnn(C4CCC5(CC4)OCCO5)c3n2)cc1	33
Cl.O=C(O)c1cc(-c2ccc(C3CCNCC3)cc2)c2ccc(-c3ccc(C(F)(F)F)cc3)cc2c1	50
O=C(c1cc2c(cc1F)OC(c1ccc(F)cc1)(c1ccc(Cl)cc1Cl)O2)N1CCOCC1 (centres undefined)	42
COC(=O)C1=C(C)NC(C)=C(C(=O)OCCCN2CCC(c3ccccc3)(c3ccccc3)CC2)[C@H]1c1cccc([N+](=O)[O-])c1 [NIGULDIPINE]	80
Cc1c[nH]c2nccc(Oc3c(F)cc(Nc4cc(Cl)nc(N)n4)cc3F)c12 [BAY-549]	66
CCc1ccc(OCc2ccccc2C(=O)Nc2ccc3nc(C)cc(N)c3c2)cc1.Cl	90
Cc1ccc2c(c1)c1c(n2CCc2ccc(C)nc2)CCN(C)C1 [LATREPIRDINE]	88
CC(C)Oc1ccccc1C(=O)Nc1ccccc1C(=O)Nc1cccc(S(=O)(=O)C(F)(F)F)c1	70
